Biological target: panel of 255 wild-type kinases (Homo sapiens)
Sequence (Q8IY84 whole entry): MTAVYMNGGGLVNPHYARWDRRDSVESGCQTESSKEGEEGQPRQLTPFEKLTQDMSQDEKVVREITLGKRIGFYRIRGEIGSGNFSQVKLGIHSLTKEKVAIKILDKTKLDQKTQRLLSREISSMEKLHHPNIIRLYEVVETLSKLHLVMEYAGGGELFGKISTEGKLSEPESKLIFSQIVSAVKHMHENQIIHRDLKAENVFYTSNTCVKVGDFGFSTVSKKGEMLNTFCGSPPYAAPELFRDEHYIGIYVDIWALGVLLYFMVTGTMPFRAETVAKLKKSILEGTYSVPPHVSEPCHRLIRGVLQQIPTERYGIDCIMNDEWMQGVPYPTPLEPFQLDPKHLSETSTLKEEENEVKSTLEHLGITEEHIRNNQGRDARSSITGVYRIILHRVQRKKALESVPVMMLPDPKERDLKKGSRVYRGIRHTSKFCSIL
Experiment: Kinase panel profiling at 1 µmol/L (MSA or IMAP), percentage inhibition
Format: biochemical
Details: NIM1K; 1 µmol/L single concentration; read-out: %-inhibition, NIM1K
In this section we review reported inhibition at 1 µM values for a set of compounds.
Measured endpoint: inhibition at 1 µM (%)

CCN1C(=O)N(c2c(F)c(OC)cc(OC)c2F)Cc2cnc3[nH]c(CN4CCOCC4)cc3c21 [pemigatinib] | -1.5
FC(F)(F)c1ccc(CNc2ccc(Cc3c[nH]c4ncc(Cl)cc34)cn2)cn1 [pexidartinib] | -1.06
CCc1nc(C(N)=O)c(Nc2ccc(N3CCC(N4CCN(C)CC4)CC3)c(OC)c2)nc1NC1CCOCC1 [gilteritinib] | 29
Cc1nc(NC(=O)N2CCC[C@H]2C(N)=O)sc1-c1ccnc(C(C)(C)C(F)(F)F)c1 [alpelisib] | -1.81
